Tested on: U251 CNS
Give one outcome, nothing more. List: active, inactive

// param item: Cc1ccc(C(CC(=O)c2ccccc2)C(C(=O)c2ccccc2)C(c2ccc(C)cc2)C2C(=O)NC(=S)NC2=O)cc1 (stereo unspecified) ; yields the recorded call inactive

// param item: O=C1c2ccccc2CCC1(Br)Br ; yields the recorded call inactive

// param item: O=C1C(Cl)=C(Nc2cccc(O)c2)C(=O)N1c1ccc(Cl)cc1Cl ; yields the recorded call inactive

// param item: Cc1csc(-c2ccc3c(c2)COC3(CCCN(C)C)c2ccc(F)cc2)c1 (stereo unspecified) ; yields the recorded call inactive

// param item: CCCN(CCC)c1ccc(/C=N/NC(=O)c2cccnc2)cc1 ; yields the recorded call inactive

// param item: Cc1[nH]c2ccccc2c1C1=CC(=O)C=CC1=O ; yields the recorded call inactive

// param item: COc1ccc2c([nH]c3cc(O)c(C)cc32)c1CC=C(C)C ; yields the recorded call inactive

// param item: COC(=O)c1cc(NC(=O)CN(CCN(CC(=O)O)CC(=O)Nc2ccc(O)c(C(=O)OC)c2)CC(=O)O)ccc1O ; yields the recorded call inactive

// param item: O=C(Nc1ccc(Cl)cc1F)c1cc(Cl)ccc1O ; yields the recorded call inactive

// param item: Nc1ncnc2c1c(C(=O)NO)cn2C1OC(CO)C(O)C1O (stereo unspecified) ; yields the recorded call active

// param item: COc1ccc2c(c1)c(-c1nc(-c3cn(C)c4ncccc34)cs1)cn2CCCCN1CCOCC1 ; yields the recorded call inactive
